# systemTested: UniProt Q9NZQ7
# protocolSummary: PD-L1 whole blood internalization assay
# testSettings: 1 ng/ml human interferon γ, PD-L1 expression on CD14+ cells, read-out: Whole Blood (24 HR) IC50
pIC50: −log10 of the molar value.
measuredProperty: pIC50

As a guide, the following entries are already answered.
{"compound": "Cc1nc(Nc2cccc(-c3cccc(-c4nc5cc(CN6CC[C@@](C)(C(=O)O)C6)cc(C#N)c5o4)c3C)c2C)c2ncc(CN[C@@H](C)CO)cc2n1 [Example 14]", "measured": "7.00 to 8.00"}
{"compound": "Cc1c(Nc2nc(C(F)F)nc3cc(CN4CC[C@](C)(O)C4)cnc23)cccc1-c1cccc(-c2nc3cc(CN4CCC(C(=O)O)CC4)cc(C#N)c3o2)c1C [Example 31]", "measured": "7.00 to 8.00"}
{"compound": "Cc1nc(Nc2cccc(-c3cccc(-c4nc5cc(CN6CCC(C(=O)O)CC6)cc(C#N)c5o4)c3C)c2C)c2ncc(CNC[C@H](C)O)cc2n1 [Example 5]", "measured": "6.30 to 7.00"}
{"compound": "Cc1nc(Nc2cccc(-c3cccc(-c4nc5cc(CN6CC[C@@H](C(=O)O)C6)cc(C#N)c5o4)c3C)c2C)c2ncc(CN3CC[C@](C)(O)C3)cc2n1 [Example 8]", "measured": "7.00 to 8.00"}
{"compound": "Cc1nc(Nc2cccc(-c3cccc(-c4nc5cc(CN6CC[C@@](C)(C(=O)O)C6)cc(C#N)c5o4)c3C)c2C)c2ncc(CN3CC[C@@](C)(O)C3)cc2n1 [Example 12]", "measured": "7.00 to 8.00"}
{"compound": "Cc1nc(Nc2cccc(-c3cccc(-c4nc5cc(CN6CCC(C(=O)O)CC6)cc(C#N)c5o4)c3C)c2C)c2ncc(CN[C@@H](C)CO)cc2n1 [Example 4]", "measured": "7.00 to 8.00"}
{"compound": "Cc1c(Nc2nc(N)nc3cc(CN4CC[C@@H](O)C4)cnc23)cccc1-c1cccc(-c2nc3cc(CN4CCC(C(=O)O)CC4)cc(C#N)c3o2)c1C [Example 29]", "measured": "7.00 to 8.00"}
{"compound": "Cc1nc(Nc2cccc(-c3cccc(-c4nc5cc(CN6CC[C@@](C)(C(=O)O)C6)cc(C#N)c5o4)c3C)c2C)c2ncc(CN3CC[C@](C)(O)C3)cc2n1 [Example 13]", "measured": "7.00 to 8.00"}

Sure, the documented pIC50 for Cc1nc(Nc2cccc(-c3cccc(-c4nc5cc(CN6CC[C@@H](C(=O)O)C6)cc(C#N)c5o4)c3C)c2C)c2ncc(CN3CC[C@@](C)(O)C3)cc2n1 [Example 7] is 7.00 to 8.00

Sure, the documented pIC50 for Cc1c(Nc2nc(CO)nc3cc(CN4CC[C@@H](O)C4)cnc23)cccc1-c1cccc(-c2nc3cc(CN4CCC(C(=O)O)CC4)cc(C#N)c3o2)c1C [Example 32] is 7.00 to 8.00

Sure, the documented pIC50 for Cc1c(Nc2nc(C(F)F)nc3cc(CN4CC[C@@H](O)C4)cnc23)cccc1-c1cccc(-c2nc3cc(CN4CC[C@H](C(=O)O)C4)cc(C#N)c3o2)c1C [Example 22] is 7.00 to 8.00

###

# systemTested: PD-1/PD-L1 (Homo sapiens (Human), UniProt Q9NZQ7)
# Sequence (Q9NZQ7 19-238): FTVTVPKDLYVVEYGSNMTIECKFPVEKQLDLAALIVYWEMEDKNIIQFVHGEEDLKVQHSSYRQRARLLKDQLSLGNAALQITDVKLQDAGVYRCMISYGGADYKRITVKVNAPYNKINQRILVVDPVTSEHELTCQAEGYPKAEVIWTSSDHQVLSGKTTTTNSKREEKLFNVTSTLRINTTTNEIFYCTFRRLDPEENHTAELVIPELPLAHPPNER
# protocolSummary: Homogeneous Time-Resolved Fluorescence (HTRF) PD-1/PD-L1 binding assay
# testSettings: recombinant human PD-1 and PD-L1, 25° C., pH 7.4
pIC50: −log10 of the molar value.
Measured pIC50 by item

As a guide, the following entries are already answered.
{"structureSmiles": "Cc1nc(Nc2cccc(-c3cccc(-c4nc5cc(CN6CC[C@@](C)(C(=O)O)C6)cc(C#N)c5o4)c3C)c2C)c2ncc(CN3CC[C@](C)(O)C3)cc2n1", "measuredProperty": "pIC50", "measured": "≥ 8.00"}
{"structureSmiles": "Cc1nc(Nc2cccc(-c3cccc(-c4nc5cc(CN6CCC(C(=O)O)CC6)cc(C#N)c5o4)c3C)c2C)c2ncc(CNC[C@H](C)O)cc2n1", "measuredProperty": "pIC50", "measured": "≥ 8.00"}

Next item in the queue.
Sure, the documented pIC50 for `Cc1c(Nc2nc(C(F)F)nc3cc(CN4CC[C@](C)(O)C4)cnc23)cccc1-c1cccc(-c2nc3cc(CN4CCC(C(=O)O)CC4)cc(C#N)c3o2)c1C` is ≥ 8.00
